- ASSAY_SYSTEM: Adenosine receptor A1 (Homo sapiens, UniProt P30542)
- Sequence (P30542 whole entry): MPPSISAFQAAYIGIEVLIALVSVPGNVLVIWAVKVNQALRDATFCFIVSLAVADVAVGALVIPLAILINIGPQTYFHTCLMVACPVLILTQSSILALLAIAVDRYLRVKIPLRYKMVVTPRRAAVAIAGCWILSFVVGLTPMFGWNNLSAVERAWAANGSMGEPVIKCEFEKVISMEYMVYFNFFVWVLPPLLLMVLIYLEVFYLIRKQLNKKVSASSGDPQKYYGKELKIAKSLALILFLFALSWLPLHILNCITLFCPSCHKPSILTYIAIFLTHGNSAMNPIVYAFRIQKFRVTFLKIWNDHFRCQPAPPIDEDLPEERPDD
pIC50: −log10 of the molar value.
MEASURED_PARAMETER: pIC50

INSERT INTO assay_data (query_smiles, value_reported) VALUES
  ('CCOc1cc(C(=O)NC2CC2)cc(-c2cccc(-c3cc(NC(=O)Nc4c(Cl)cncc4Cl)c(=O)n(CC)n3)c2)c1', 7.23);

A: CCn1nc(-c2cccc(-c3cccc(CC(=O)NCCCCCCCN(C)CCO)c3)c2)cc(NC(=O)Nc2c(Cl)cncc2Cl)c1=O
B: CCn1nc(-c2cccc(-c3cccc(O)c3)c2)cc(NC(=O)Nc2c(Cl)cncc2Cl)c1=O
Looking at A and B , which one comes out lower in pIC50 terms? Lab log: write the label of the selected item as the result.
B
(B: 7.06, A: 7.55)
